Recorded total protein half-life in vivo, one value per entry.
# assay_notes: total protein half-life in vivo (active degradation + dilution); higher = more stable protein
# assay_setup: wild type E. coli NCM3722; growth: P-lim chemostat; doubling time 12 h
measured_attribute: total protein half-life in vivo (h)

>>> recorded_value("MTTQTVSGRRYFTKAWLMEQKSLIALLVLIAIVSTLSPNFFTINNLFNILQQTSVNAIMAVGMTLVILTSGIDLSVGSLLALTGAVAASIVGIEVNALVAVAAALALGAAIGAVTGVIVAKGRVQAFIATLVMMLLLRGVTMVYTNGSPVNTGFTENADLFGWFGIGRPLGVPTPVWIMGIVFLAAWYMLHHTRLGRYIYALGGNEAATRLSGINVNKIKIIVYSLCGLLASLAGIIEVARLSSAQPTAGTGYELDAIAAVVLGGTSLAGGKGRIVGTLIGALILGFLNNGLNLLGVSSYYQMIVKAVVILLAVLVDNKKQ [P0AGI1]")
13.2
>>> recorded_value("MIDTTLPLTDIHRHLDGNIRPQTILELGRQYNISLPAQSLETLIPHVQVIANEPDLVSFLTKLDWGVKVLASLDACRRVAFENIEDAARHGLHYVELRFSPGYMAMAHQLPVAGVVEAVIDGVREGCRTFGVQAKLIGIMSRTFGEAACQQELEAFLAHRDQITALDLAGDELGFPGSLFLSHFNRARDAGWHITVHAGEAAGPESIWQAIRELGAERIGHGVKAIEDRALMDFLAEQQIGIESCLTSNIQTSTVAELAAHPLKTFLEHGIRASINTDDPGVQGVDIIHEYTVAAPAAGLSREQIRQAQINGLEMAFLSAEEKRALREKVAAK")
11

====

# assay_notes: total protein half-life in vivo (active degradation + dilution); higher = more stable protein
# assay_setup: wild type E. coli NCM3722; growth: N-lim chemostat; doubling time 6 h
# total protein half-life in vivo per record follows
measured_attribute: total protein half-life in vivo (h)

>>> recorded_value("MSKCSADETPVCCCMDVGTIMDNSDCTASYSRVFANRAEAEQTLAALTEKARSVESEPCKITPTFTEESDGVRLDIDFTFACEAEMLIFQLGLR [P0AD33]")
2.09
>>> recorded_value("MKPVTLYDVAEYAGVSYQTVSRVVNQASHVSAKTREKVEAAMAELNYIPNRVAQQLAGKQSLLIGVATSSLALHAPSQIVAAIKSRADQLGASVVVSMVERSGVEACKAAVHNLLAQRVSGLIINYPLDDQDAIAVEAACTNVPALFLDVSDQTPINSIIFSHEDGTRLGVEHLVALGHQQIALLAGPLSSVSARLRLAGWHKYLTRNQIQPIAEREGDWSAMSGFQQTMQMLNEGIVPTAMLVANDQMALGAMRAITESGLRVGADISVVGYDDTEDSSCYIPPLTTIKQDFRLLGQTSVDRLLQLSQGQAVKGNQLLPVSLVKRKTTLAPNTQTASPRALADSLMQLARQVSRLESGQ")
5.01
>>> recorded_value("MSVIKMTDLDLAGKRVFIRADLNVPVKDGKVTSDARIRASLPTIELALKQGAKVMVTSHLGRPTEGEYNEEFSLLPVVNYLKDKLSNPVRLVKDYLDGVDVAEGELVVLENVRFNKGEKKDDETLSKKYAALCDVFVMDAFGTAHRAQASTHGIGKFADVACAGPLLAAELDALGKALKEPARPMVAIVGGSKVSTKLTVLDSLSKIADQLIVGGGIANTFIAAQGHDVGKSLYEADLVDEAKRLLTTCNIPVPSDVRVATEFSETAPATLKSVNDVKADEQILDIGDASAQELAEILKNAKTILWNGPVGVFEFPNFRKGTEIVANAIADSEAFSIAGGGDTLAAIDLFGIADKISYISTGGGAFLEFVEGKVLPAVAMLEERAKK [P0A799]")
4.92
>>> recorded_value("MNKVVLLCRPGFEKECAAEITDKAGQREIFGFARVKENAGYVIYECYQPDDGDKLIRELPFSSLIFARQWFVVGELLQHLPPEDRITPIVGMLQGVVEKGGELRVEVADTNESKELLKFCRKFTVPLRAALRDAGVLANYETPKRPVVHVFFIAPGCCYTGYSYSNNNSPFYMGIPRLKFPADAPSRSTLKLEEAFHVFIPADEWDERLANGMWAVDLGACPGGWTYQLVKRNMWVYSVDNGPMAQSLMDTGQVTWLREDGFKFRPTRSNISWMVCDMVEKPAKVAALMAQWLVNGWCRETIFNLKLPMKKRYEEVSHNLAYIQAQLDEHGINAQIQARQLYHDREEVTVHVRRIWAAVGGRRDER [P0ADR6]")
4.78
>>> recorded_value("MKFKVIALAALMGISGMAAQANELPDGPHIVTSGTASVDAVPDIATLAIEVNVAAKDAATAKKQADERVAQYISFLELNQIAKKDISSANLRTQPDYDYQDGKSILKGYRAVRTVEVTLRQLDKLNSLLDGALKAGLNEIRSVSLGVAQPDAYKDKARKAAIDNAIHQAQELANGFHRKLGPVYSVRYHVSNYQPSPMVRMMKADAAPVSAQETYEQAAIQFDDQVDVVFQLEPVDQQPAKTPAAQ [P0ADS6]")
5.83
>>> recorded_value("MRNLVKYVGIGLLVMGLAACDDKDTNATAQGSVAESNATGNPVNLLDGKLSFSLPADMTDQSGKLGTQANNMHVWSDATGQKAVIVIMGDDPKEDLAVLAKRLEDQQRSRDPQLQVVTNKAIELKGHKMQQLDSIISAKGQTAYSSVILGNVGNQLLTMQITLPADDQQKAQTTAENIINTLVIQ [P0AEE1]")
5.6
>>> recorded_value("MTKQPPIAKADLQKTQGNRAPAAVKNSDVISFINQPSMKEQLAAALPRHMTAERMIRIATTEIRKVPALGNCDTMSFVSAIVQCSQLGLEPGSALGHAYLLPFGNKNEKSGKKNVQLIIGYRGMIDLARRSGQIASLSARVVREGDEFSFEFGLDEKLIHRPGENEDAPVTHVYAVARLKDGGTQFEVMTRKQIELVRSLSKAGNNGPWVTHWEEMAKKTAIRRLFKYLPVSIEIQRAVSMDEKEPLTIDPADSSVLTGEYSVIDNSEE")
1.57
>>> recorded_value("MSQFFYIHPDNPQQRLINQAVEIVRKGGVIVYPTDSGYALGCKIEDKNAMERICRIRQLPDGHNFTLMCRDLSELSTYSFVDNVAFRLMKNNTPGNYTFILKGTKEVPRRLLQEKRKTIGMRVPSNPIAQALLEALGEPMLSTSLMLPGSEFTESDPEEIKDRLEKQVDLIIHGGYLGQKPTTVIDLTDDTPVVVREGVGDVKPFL [P0AFR4]")
5.38
>>> recorded_value("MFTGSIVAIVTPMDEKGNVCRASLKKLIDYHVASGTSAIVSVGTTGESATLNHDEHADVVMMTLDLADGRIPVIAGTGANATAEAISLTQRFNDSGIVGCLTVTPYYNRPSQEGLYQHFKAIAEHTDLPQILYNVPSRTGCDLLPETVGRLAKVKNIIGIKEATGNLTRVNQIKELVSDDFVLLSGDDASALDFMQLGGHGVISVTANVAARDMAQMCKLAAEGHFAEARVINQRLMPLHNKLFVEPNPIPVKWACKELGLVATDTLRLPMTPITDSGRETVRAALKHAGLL [P0A6L2]")
3.43
>>> recorded_value("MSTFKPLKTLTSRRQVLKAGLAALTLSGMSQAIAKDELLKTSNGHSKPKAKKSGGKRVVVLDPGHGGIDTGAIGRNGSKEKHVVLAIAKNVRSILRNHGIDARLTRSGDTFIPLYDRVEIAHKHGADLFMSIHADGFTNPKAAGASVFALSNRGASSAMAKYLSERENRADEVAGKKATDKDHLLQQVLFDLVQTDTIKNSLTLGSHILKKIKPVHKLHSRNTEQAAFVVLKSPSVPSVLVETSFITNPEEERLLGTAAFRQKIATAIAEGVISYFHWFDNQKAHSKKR")
5.08

All figures here come from the supplement of paper PMC11246515.
